# test.description: Cannabinoid half-lives in exhaled breath, multi-point breath sampling
# Type: in vivo, human
# settings: human, exhaled breath, inhaled, 500 mg, 20 Minutes Post-Smoking; read-out: Cannabinoid Half-Lives (min) in breath, back-to-back sampling, Average
parameter.measured: half-life (min)
Answer in min, number only, no unit symbol.

Q. Data request, read-out half-life, for CCCCCc1cc(O)c2c(c1)OC(C)(C)c1ccc(C)cc1-2 [CBN, cannabinol]
A. 2.7

Q. Data request, read-out half-life, for CCCCCc1cc(O)c2c(c1)OC(C)(CCC=C(C)C)C=C2 (stereo not drawn) [CBC, cannabichromene]
A. 3.3

Q. Data request, read-out half-life, for CCCCCc1cc(O)c(C/C=C(\C)CCC=C(C)C)c(O)c1 [CBG, cannabigerol]
A. 1.7

====

Please respond with reported half-life for every item in the list.
# test.description: Cannabinoid half-lives in exhaled breath, multi-point breath sampling
# Type: in vivo, human
# settings: human, exhaled breath, inhaled, 500 mg, 0-10 Minutes Post-Smoking; read-out: Average Half-Life (minutes ± SD) in breath
Hi, when you answer, please include the unit after the number. Thanks!

Q. Data request, read-out half-life, for CCCCCc1cc(O)c2c(c1)OC(C)(CCC=C(C)C)C=C2 (centres unmarked)
A. 3.9 min

Q. Data request, read-out half-life, for CCCCCc1cc(O)c(C/C=C(\C)CCC=C(C)C)c(O)c1
A. 3.6 min

====

# test.description: Presence of cannabinoids in exhaled breath before and after smoking (LC-HRMS)
# Type: in vivo, human
# settings: ≤60 minutes after smoking
parameter.measured: Presence in exhaled breath, Percent (%) Positivity

[[record]]
compound = "CCCCCc1cc(O)c2c(c1)OC(C)(C)c1ccc(C)cc1-2 [CBN, cannabinol]"
reported_result = "(92.5%)"

[[record]]
compound = "CCCCCc1cc(O)c(C/C=C(\\C)CCC=C(C)C)c(O)c1 [CBG, cannabigerol]"
reported_result = "(92.5%)"


====

# test.description: Cannabinoid half-lives in exhaled breath, multi-point breath sampling
# Format: in vivo, human
# settings: human, exhaled breath, inhaled, 500 mg, 40-60 Minutes Post-Smoking; read-out: Average Half-Life (minutes ± SD) in breath
parameter.measured: half-life (min)
Answer in min, number only, no unit symbol.

Q. Data request, read-out half-life, for CCCCCc1cc(O)c2c(c1)OC(C)(C)c1ccc(C)cc1-2
A. 12.8

====

# test.description: Presence of cannabinoids in exhaled breath before and after smoking (LC-HRMS)
# Type: in vivo, human
# settings: ≤60 minutes after smoking
Please respond with reported Presence in exhaled breath, positive/evaluable subjects for every item in the list.

Q. Data request, read-out Presence in exhaled breath, positive/evaluable subjects, for CCCCCc1cc(O)c2c(c1)OC(C)(C)c1ccc(C)cc1-2
A. 37/40

Q. Data request, read-out Presence in exhaled breath, positive/evaluable subjects, for CCCCCc1cc(O)c2c(c1)OC(C)(C)[C@@H]1CCC(C)=C[C@@H]21 [Δ^9-THC, Δ^9-tetrahydrocannabinol]
A. 40/40

Q. Data request, read-out Presence in exhaled breath, positive/evaluable subjects, for CCCCCc1cc(O)c(C/C=C(\C)CCC=C(C)C)c(O)c1C(=O)O
A. 18/40

Q. Data request, read-out Presence in exhaled breath, positive/evaluable subjects, for CCCCCc1cc(O)c(C/C=C(\C)CCC=C(C)C)c(O)c1
A. 37/40

Q. Data request, read-out Presence in exhaled breath, positive/evaluable subjects, for CCCc1cc(O)c2c(c1)OC(C)(C)[C@@H]1CCC(C)=C[C@@H]21 [Δ^9-THCV, Δ^9-tetrahydrocannabivarin]
A. 36/40

Q. Data request, read-out Presence in exhaled breath, positive/evaluable subjects, for CCCCCc1cc(O)c2c(c1)OC(C)(CCC=C(C)C)C=C2 (stereo not drawn)
A. 39/40
